Assay: A CellTox Green Cytotoxicity Assay to monitor cytotoxicity in HepG2 cells - 32 hour (AID 1224883); also: nearly all actives have a fitted effect of over 50% in size
Settings: CellTox Green fluorescence; series mostly up to 76.8 µM
From the text: National Center for Advancing Translational Sciences [NCATS] NIH Chemical Genomics Center [NCGC] U.S. Environmental Protection Agency [EPA] National Institutes of Environmental Health Sciences [NIEHS] National Toxicology Program [NTP] Cell-based models are critical for drug discovery. […] Viable cells produce no appreciable increases in fluorescence. Therefore, the fluorescence signal produced by the binding interaction with dead cell DNA is proportional to cytotoxicity. […]
Records with an inconclusive call do not appear. Calls of active or inactive are those of the source. Calls follow the shape of the dose curve; as a rule, active = well fitted activation curve with a large enough effect in the repeat runs; inconclusive = weak or mixed curves; inactive = flat fitted curve, though single readings scatter.
# output must be one of 1 (active), -1 (inactive)

compound | assigned.category
CCCCCCCCCCCOC(=O)c1ccccc1C(=O)OCCCCCCCCCCC | -1
Nc1ccc(-c2ccccc2)cc1 | -1

IN: Hi, do you know how N#CCCCl came out in this test?
OUT: -1

IN: Hi, do you know how O=Cc1ccco1 came out in this test?
OUT: -1

IN: Hi, do you know how CCN(CC)N=O came out in this test?
OUT: -1

IN: Hi, do you know how O=[N+]([O-])c1c(Cl)c(Cl)c(Cl)c(Cl)c1Cl came out in this test?
OUT: -1

IN: Hi, do you know how CC(C)(C)c1ccccc1O came out in this test?
OUT: 1

IN: Hi, do you know how CC(C)c1ccc(CO)cc1 came out in this test?
OUT: -1

IN: Hi, do you know how Oc1c(Cl)c(Cl)c(Cl)c(Cl)c1Cl came out in this test?
OUT: -1

----------
Target: Cytochrome P450 2C19 (Homo sapiens) (UniProt P33261)
Sequence (P33261 whole entry, looked up): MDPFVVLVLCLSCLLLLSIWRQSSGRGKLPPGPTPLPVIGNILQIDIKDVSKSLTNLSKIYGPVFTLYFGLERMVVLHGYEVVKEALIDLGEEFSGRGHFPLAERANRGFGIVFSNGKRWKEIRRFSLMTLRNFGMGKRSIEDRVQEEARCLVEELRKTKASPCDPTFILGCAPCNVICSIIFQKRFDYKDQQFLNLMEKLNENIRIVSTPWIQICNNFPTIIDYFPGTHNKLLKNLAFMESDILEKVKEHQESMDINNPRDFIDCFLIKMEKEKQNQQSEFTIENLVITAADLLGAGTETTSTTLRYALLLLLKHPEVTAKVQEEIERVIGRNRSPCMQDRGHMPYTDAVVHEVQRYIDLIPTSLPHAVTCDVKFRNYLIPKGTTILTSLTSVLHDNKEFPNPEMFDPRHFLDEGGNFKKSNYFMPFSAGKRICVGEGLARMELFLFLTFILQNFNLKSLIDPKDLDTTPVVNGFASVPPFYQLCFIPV
Assay: Cytochrome P450 Family 2 Subfamily C Member 19 (CYP2C19) small molecule antagonists: luciferase reporter qHTS assay (AID 1671197); also: nearly all actives have a fitted effect of over 65% in size; also: potency is read from the fitted curve at half-maximal effect
Settings: P450-Glo CYP2C19 enzyme, luciferin luminescence, 1 h; series mostly up to 115 µM
Inconclusive results are not listed. The source made the active and inactive calls. Calls follow the shape of the dose curve; as a rule, active = well fitted inhibition curve with a large enough effect in the repeat runs; inconclusive = weak or mixed curves; inactive = no such curve, though single readings can be large or run the other way.

molecule | Potency
C[C@]12CCC(=O)C(O)=C1CC[C@@H]1[C@@H]2CC[C@]2(C)C(=O)CC[C@@H]12 | 20 µM (active)
CC(C)C(=O)OCC(C)(C)C(OC(=O)C(C)C)C(C)C (centres undefined) | inactive
CCN(CC)C(=O)/C(Cl)=C(\C)OP(=O)(OC)OC | inactive
NNC(N)=S | 73.8 µM (active)

----------
Experiment: Caspase-3/7 induction in CHO-K1 cells by small molecules, qHTS cell viability counter screen (AID 1346979); also: nearly all actives have a fitted effect of over 35% in size
Conditions: CellTiter-Fluor fluorescence, 17 h; series mostly up to 92.4 µM
Results filed as inconclusive are left out. Activity calls are given as the source filed them. Calls come from the whole dose curve; as a rule, active = well fitted cell-killing curve with a large enough effect in the repeat runs; inconclusive = weak or mixed curves, or effect the other way; inactive = no such curve, though single readings can be large or run the other way.
# output must be one of active, inactive

Reference set (2 entries):
compound | assigned.category
C1=Cc2cccc3cccc1c23 | inactive
C[C@]12CCC(=O)C(O)=C1CC[C@@H]1[C@@H]2CC[C@]2(C)C(=O)CC[C@@H]12 | inactive

--- query ---
IN: Hi, do you know how CC(C)C(=O)OCC(C)(C)C(OC(=O)C(C)C)C(C)C (stereo unspecified) came out in this test?
OUT: inactive

----------
Test: qHTS assay to identify small molecule antagonists of the sonic hedgehog signaling (Shh) pathway (AID 1259369); also: nearly all actives have a fitted effect of over 45% in size
Settings: NIH/3T3 Gli1-Luc reporter, Shh antagonist, luminescence 24 h; series mostly up to 92.4 µM
Records with an inconclusive call do not appear. Calls of active or inactive are those of the source. Calls come from the whole dose curve.

smiles.structure | outcome
Cc1ccccc1[N+](=O)[O-] | inactive
CCN(CC)N=O | inactive
Nc1ccc(Cl)c(Cl)c1 | inactive

Data origin, for the record: PubChem BioAssay (Tox21)
